B1: SMG5 (parent)
chain: TRKLSPGKKRCKDIKRLLVNFMYL

- Variants of: B1
- Test method notes: protein stability index of a GFP-peptide fusion (GPS, HEK-293T) (PSI 1-6); higher = more stable;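 further: lentivirally expressed fusions sorted by FACS into six bins by GFP to DsRed ratio, PSI derived from sequencing read proportions per bin multiplied by bin number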
- Cond: c terminus: a fixed tail appended
Label No if protein stability index falls below 2; label Yes in every other case.

- TRKLSPGKKRCYDIKRLLVNFMYL [K12Y]: Yes
- TRKLSPGKKRCKDIKRLLQNFMYL [V19Q]: Yes
- TRKLSPGKKRCKDKKRLLVNFMYL [I14K]: No
- TRKLSPGKKQCKDIKRLLVNFMYL [R10Q]: Yes
- TRKLSPGKKRCKDIKRLLVNQMYL [F21Q]: No
- TRKLSPGKKRCKDIKRLLHNFMYL [V19H]: Yes
- TRKLSPGKKRCADIKRLLVNFMYL [K12A]: Yes
- TRKLSPGKKRCKDIKRLLVNCMYL [F21C]: No
- TRKLSPGKKRCKDIKRLLVNFMYR [L24R]: Yes
- TRKLSPGKKRCKDIKRLLVNSMYL [F21S]: Yes
- TRKLSPGKKRCKDIKRLLVNFMPL [Y23P]: No
- TRKLSPGKKRWKDIKRLLVNFMYL [C11W]: Yes
- TRKLSPGKKRCKDLKRLLVNFMYL [I14L]: Yes
- TRKLSDGKKRCKDIKRLLVNFMYL [P6D]: Yes
- TRKLSPGKNRCKDIKRLLVNFMYL [K9N]: Yes
- TRKLSPGKKRCKDIKRLLVFFMYL [N20F]: Yes
- TRKLSPGKKRCKNIKRLLVNFMYL [D13N]: No
- TRKLSPGKKRCKDIKSLLVNFMYL [R16S]: No
- TRKLSPGWKRCKDIKRLLVNFMYL [K8W]: Yes
- WRKLSPGKKRCKDIKRLLVNFMYL [T1W]: No
- TRKLSPGKKRCKDIKRLLVNFMYK [L24K]: Yes
- TRKLSPGKKHCKDIKRLLVNFMYL [R10H]: Yes
- TRKLSPGKKRCKDFKRLLVNFMYL [I14F]: Yes
- TRKLSPGKKRCKDIKRLLVNFMKL [Y23K]: Yes
- TRMLSPGKKRCKDIKRLLVNFMYL [K3M]: Yes
- TRKLSPLKKRCKDIKRLLVNFMYL [G7L]: Yes
- TRKLFPGKKRCKDIKRLLVNFMYL [S5F]: Yes
- TRKLSPGKKRQKDIKRLLVNFMYL [C11Q]: No
- TRKLSPGKKRCKDIKLLLVNFMYL [R16L]: No
- TRKLSPFKKRCKDIKRLLVNFMYL [G7F]: Yes
- TRKLSSGKKRCKDIKRLLVNFMYL [P6S]: Yes
- TRKLSPGEKRCKDIKRLLVNFMYL [K8E]: Yes
- TRKLSPGKKRCKDIKRLLVNFMYI [L24I]: Yes
- TRKLSPGKKRCKAIKRLLVNFMYL [D13A]: Yes
- TRKLSPNKKRCKDIKRLLVNFMYL [G7N]: Yes
- TRKLSPGKKRMKDIKRLLVNFMYL [C11M]: No
- TRKLSPGKKRCKDIKRLLVVFMYL [N20V]: Yes
- TRKLSPGKKRCKDIKRLLVNFQYL [M22Q]: No
- TRKLSPGKKRCKCIKRLLVNFMYL [D13C]: No
- TRKLSPGKKRCKDIKWLLVNFMYL [R16W]: Yes
- TTKLSPGKKRCKDIKRLLVNFMYL [R2T]: Yes
- TRKLSPVKKRCKDIKRLLVNFMYL [G7V]: Yes
- TRKPSPGKKRCKDIKRLLVNFMYL [L4P]: Yes
- TRKLSPGKKRCPDIKRLLVNFMYL [K12P]: Yes
- TRKLSPGKKRVKDIKRLLVNFMYL [C11V]: No
- TRKLSPIKKRCKDIKRLLVNFMYL [G7I]: Yes
